- Assay: HepG2 cytotoxicity, primary screen, cytotoxicity control for P. falciparum antimalarial project, cell-based, ATP luminescence (AID 2303)
- Assay setup: HepG2 viability, 24-48 h, at 10 µM, active compounds read high
I'd appreciate it if you could label each record using inhibition and these ranges: bottom bin = under 7%, middle bin = from 7% up to 20%, top bin = 20% and over

Observe how each entry below is paired with its result.
compound=Cc1nc(-c2ccc(-c3ccc(NC(=O)c4coc5ccc(N6C[C@@H](C)N[C@@H](C)C6)cc45)cc3)c(C)c2)no1 qualitative_label="bottom bin"
compound=CNCCNCc1ccc(-c2cccc(-c3nc4ccc(C(F)(F)F)cc4[nH]3)c2)cc1 qualitative_label="top bin"
compound=COc1cc(F)c2ncc(Cl)c([C@H](O)CN3CCC(NCc4cc5c(cn4)OCCO5)CC3)c2c1 qualitative_label="middle bin"
compound="CC(CCc1ccccc1)NCC(O)c1ccc2c(c1)S(=O)(=O)c1ccccc1N2 (centres undefined)" qualitative_label="middle bin"
compound=CN1CCC(NCc2ccc(-c3ccc(S(=O)(=O)NC4CCC4)s3)cc2)CC1 qualitative_label="top bin"
compound=CN(C)CCNC(=O)N1CCCN(c2ncnc3cc(-c4ccccc4)sc23)CC1 qualitative_label="bottom bin"
compound=O=C(Nc1ccc(CN2CCN(S(=O)(=O)c3ccc(Cl)s3)CC2)cc1)c1cccs1 qualitative_label="middle bin"

Asked: Field: class (inhibition) — entry: O=C(c1ccc(Cl)cc1)N1CCOC(CCN2CCC(c3ccccc3)CC2)(c2ccc(Cl)c(Cl)c2)C1 (centres undefined)
Given back: middle bin
